// cross-source set; read-out = pIC50; system = UniProtKB P29597
pIC50: −log10 of the molar value.

Solved entries (count: 5):
compound: O=C1NCCCCOCc2cc(ccc2OC2CCCC2)Nc2nccc(n2)-c2ccc1cc2F
experimental endpoint: pIC50
observed: 5.00 to 6.00
--
compound: CC(C)OCCn1cc(-c2cc3nccn3c(-c3cnn(C(CC#N)C4CC4)c3)n2)cn1 (centres unmarked)
experimental endpoint: pIC50
observed: 7.00 to 8.00
--
compound: N#Cc1cn(C(=O)NCCC(F)(F)F)c2c1CCN(c1ncnc3[nH]ccc13)C2
experimental endpoint: pIC50
observed: 5.70 to 6.30
--
compound: Nc1cc2ccc1-c1ccnc(n1)Nc1ccc(OCC3CCOC3)c(c1)COCCCCNC2=O (centres unmarked)
experimental endpoint: pIC50
observed: 5.00 to 6.00
--
compound: CNC(=O)c1ncc(Nc2nccc(-c3ccc(NC(=O)[C@@H]4CC4(F)F)cc3)n2)cc1C
experimental endpoint: pIC50
observed: 8.10

Entry `Cc1cc(Nc2cc3ncccc3c(N[C@@H]3C[C@H]4CC[C@@H](C3)N4S(=O)(=O)c3cn[nH]c3)n2)n[nH]1` , system UniProtKB P29597: what pIC50 was measured? < 7.00

Entry NC(=O)c1cnc(Nc2ccc3c(c2)NCC(O)CO3)nc1Nc1cccc(F)c1 (centres unmarked) , system UniProtKB P29597: what pIC50 was measured? 7.00 to 8.00
